# experiment notes: Stability of complexes at 30-80° C.
# Assay type: physicochemical
endpoint name: Stability

{"molecule": "CC[C@@H](O)CC(=O)[O-].[Na+] [Sodium R-3-hydroxypentanoate, sodium R-3-hydroxypentanoate]", "endpoint name": "Stability", "result": "unchanged"}
{"molecule": "CCC(O)CC(=O)[O-].[Na+] (stereo not drawn) [Sodium 3-hydroxypentanoate, sodium 3-hydroxypentanoate]", "endpoint name": "Stability", "result": "unchanged"}
{"molecule": "CC[C@H](O)CC(=O)[O-].[Na+] [Sodium S-3-hydroxypentanoate, sodium S-3-hydroxypentanoate]", "endpoint name": "Stability", "result": "unchanged"}
{"molecule": "CC[C@H](O)CC(=O)O.CC[C@H](O)CC(=O)[O-].[Na+]", "endpoint name": "Stability", "result": "unchanged"}
{"molecule": "CCC(O)CC(=O)O.CCC(O)CC(=O)[O-].[Na+] (stereo not drawn)", "endpoint name": "Stability", "result": "unchanged"}
{"molecule": "CC[C@@H](O)CC(=O)O.CC[C@@H](O)CC(=O)[O-].[Na+]", "endpoint name": "Stability", "result": "unchanged"}

====

# experiment notes: Determination of moisture contents with KF moisture meter at different time points
# Type: physicochemical
# test parameters: temperature 23° C., humidity 92.5%, 11 h
Each entry below lists one item and its recorded moisture content (%) value.

{"compound": "CC[C@H](O)CC(=O)[O-].[Na+] [Sodium S-3-hydroxypentanoate, sodium S-3-hydroxypentanoate]", "moisture content (%)": "10.61%"}
{"compound": "C[C@H](O)CC(=O)[O-].C[C@H](O)CC(=O)[O-].[Mg+2] [Magnesium S-3-hydroxybutyrate, magnesium S-3-hydroxybutyrate]", "moisture content (%)": "12.35%"}
{"compound": "CC(O)CC(=O)O.CC(O)CC(=O)[O-].CC(O)CC(=O)[O-].[Mg+2] (centres unmarked)", "moisture content (%)": "8.75%"}
{"compound": "CC[C@@H](O)CC(=O)[O-].[Na+] [Sodium R-3-hydroxypentanoate, sodium R-3-hydroxypentanoate]", "moisture content (%)": "10.57%"}
{"compound": "C[C@H](O)CC(=O)O.C[C@H](O)CC(=O)[O-].[K+]", "moisture content (%)": "9.83%"}
{"compound": "C[C@@H](O)CC(=O)O [R-3-hydroxybutyric acid]", "moisture content (%)": "17.22%"}
{"compound": "CC[C@@H](O)CC(=O)O [R-3-hydroxypentanoic acid]", "moisture content (%)": "14.35%"}
{"compound": "C[C@@H](O)CC(=O)O.C[C@@H](O)CC(=O)[O-].C[C@@H](O)CC(=O)[O-].[Ca+2]", "moisture content (%)": "8.65%"}
{"compound": "CC(O)CC(=O)O (centres unmarked) [3-hydroxybutyric acid]", "moisture content (%)": "17.33%"}
{"compound": "CC(O)CC(=O)O.CC(O)CC(=O)[O-].[K+] (centres unmarked)", "moisture content (%)": "9.67%"}
{"compound": "C[C@H](O)CC(=O)O.C[C@H](O)CC(=O)[O-].C[C@H](O)CC(=O)[O-].[Mg+2]", "moisture content (%)": "8.86%"}
{"compound": "C[C@H](O)CC(=O)O [S-3-hydroxybutyric acid]", "moisture content (%)": "17.08%"}
{"compound": "C[C@H](O)CC(=O)O.C[C@H](O)CC(=O)[O-].C[C@H](O)CC(=O)[O-].[Ca+2]", "moisture content (%)": "8.41%"}
{"compound": "C[C@H](O)CC(=O)[O-].C[C@H](O)CC(=O)[O-].[Ca+2] [Calcium S-3-hydroxybutyrate, calcium S-3-hydroxybutyrate]", "moisture content (%)": "10.34%"}
{"compound": "CCC(O)CC(=O)O.CCC(O)CC(=O)[O-].[Na+] (centres unmarked)", "moisture content (%)": "7.28%"}
{"compound": "CC[C@H](O)CC(=O)O [S-3-hydroxypentanoic acid]", "moisture content (%)": "14.23%"}
{"compound": "C[C@@H](O)CC(=O)[O-].[K+] [Potassium R-3-hydroxybutyrate, potassium R-3-hydroxybutyrate]", "moisture content (%)": "16.72%"}

====

# experiment notes: Determination of moisture contents with KF moisture meter at different time points
# Assay type: physicochemical
# test parameters: temperature 23° C., humidity 92.5%, 1 h
# Text: For R-3-hydroxybutyric acid, potassium R-3-hydroxybutyrate, mixture of R-3-hydroxybutyric acid and potassium R-3-hydroxybutyrate, and R-3-hydroxybutyric acid·potassium R-3-hydroxybutyrate complex of Example 1, under a certain condition, KF moisture meter was used to determine the moisture contents at different time points. […]

{"compound": "CC(O)CC(=O)O.CC(O)CC(=O)[O-].CC(O)CC(=O)[O-].[Ca+2] (stereo not drawn)", "moisture content (%)": 1.12}
{"compound": "C[C@@H](O)CC(=O)[O-].[K+] [Potassium R-3-hydroxybutyrate, potassium R-3-hydroxybutyrate]", "moisture content (%)": 1.91}
{"compound": "C[C@@H](O)CC(=O)O.C[C@@H](O)CC(=O)[O-].C[C@@H](O)CC(=O)[O-].[Mg+2]", "moisture content (%)": 0.92}

====

# experiment notes: Determination of moisture contents with KF moisture meter at different time points
# Type: physicochemical
# test parameters: temperature 23° C., humidity 92.5%, 7 h
Consider the following compounds and their measured moisture content (%) readings.

{"compound": "CC[C@@H](O)CC(=O)O [R-3-hydroxypentanoic acid]", "moisture content (%)": 8.80}
{"compound": "CC[C@H](O)CC(=O)O [S-3-hydroxypentanoic acid]", "moisture content (%)": 8.85}
{"compound": "CC(O)CC(=O)O (stereo not drawn) [3-hydroxybutyric acid]", "moisture content (%)": 10.71}
{"compound": "C[C@H](O)CC(=O)O.C[C@H](O)CC(=O)[O-].C[C@H](O)CC(=O)[O-].[Mg+2]", "moisture content (%)": 5.64}
{"compound": "CCC(O)CC(=O)O (stereo not drawn) [3-hydroxypentanoic acid]", "moisture content (%)": 8.93}
{"compound": "C[C@@H](O)CC(=O)O.C[C@@H](O)CC(=O)[O-].C[C@@H](O)CC(=O)[O-].[Mg+2]", "moisture content (%)": 5.69}
{"compound": "C[C@H](O)CC(=O)O.C[C@H](O)CC(=O)[O-].C[C@H](O)CC(=O)[O-].[Ca+2]", "moisture content (%)": 5.22}
{"compound": "C[C@@H](O)CC(=O)[O-].[K+] [Potassium R-3-hydroxybutyrate, potassium R-3-hydroxybutyrate]", "moisture content (%)": 8.24}
{"compound": "CC[C@@H](O)CC(=O)O.CC[C@@H](O)CC(=O)[O-].[Na+]", "moisture content (%)": 4.49}

====

# experiment notes: Determination of moisture contents with KF moisture meter at different time points
# Assay type: physicochemical
# test parameters: temperature 23° C., humidity 92.5%, 22 h

{"molecule": "CC[C@H](O)CC(=O)O.CC[C@H](O)CC(=O)[O-].[Na+]", "moisture content (%)": 14.11}
{"molecule": "C[C@@H](O)CC(=O)O [R-3-hydroxybutyric acid]", "moisture content (%)": 33.34}
{"molecule": "C[C@@H](O)CC(=O)O.C[C@@H](O)CC(=O)[O-].C[C@@H](O)CC(=O)[O-].[Ca+2]", "moisture content (%)": 14.45}
{"molecule": "C[C@H](O)CC(=O)O.C[C@H](O)CC(=O)[O-].C[C@H](O)CC(=O)[O-].[Mg+2]", "moisture content (%)": 14.74}
{"molecule": "C[C@@H](O)CC(=O)O.C[C@@H](O)CC(=O)[O-].[K+]", "moisture content (%)": 19.45}

====

Readings of moisture content (%) for the listed molecules
# experiment notes: Determination of moisture contents with KF moisture meter at different time points
# Assay type: physicochemical
# test parameters: temperature 23° C., humidity 92.5%, 1 h
endpoint name: moisture content (%)

{"molecule": "CC(O)CC(=O)[O-].[K+] (stereo not shown) [Potassium 3-hydroxybutyrate, potassium 3-hydroxybutyrate]", "unit": "%", "result number": 1.93}
{"molecule": "CCC(O)CC(=O)O (stereo not shown) [3-hydroxypentanoic acid]", "unit": "%", "result number": 1.98}
{"molecule": "C[C@H](O)CC(=O)[O-].C[C@H](O)CC(=O)[O-].[Mg+2] [Magnesium S-3-hydroxybutyrate, magnesium S-3-hydroxybutyrate]", "unit": "%", "result number": 1.28}
{"molecule": "CC[C@H](O)CC(=O)O [S-3-hydroxypentanoic acid]", "unit": "%", "result number": 1.90}

====

The reader will find reported moisture content (%) values listed item by item below.
# experiment notes: Determination of moisture contents with KF moisture meter at different time points
# Type: physicochemical
# test parameters: temperature 23° C., humidity 92.5%, 6 h
endpoint name: moisture content (%)

{"compound": "C[C@H](O)CC(=O)[O-].C[C@H](O)CC(=O)[O-].[Mg+2] [Magnesium S-3-hydroxybutyrate, magnesium S-3-hydroxybutyrate]", "endpoint name": "moisture content (%)", "result number": 6.37}
{"compound": "CC(O)CC(=O)O.CC(O)CC(=O)[O-].CC(O)CC(=O)[O-].[Mg+2] (stereo not drawn)", "endpoint name": "moisture content (%)", "result number": 4.62}
{"compound": "C[C@H](O)CC(=O)O.C[C@H](O)CC(=O)[O-].[K+]", "endpoint name": "moisture content (%)", "result number": 5.99}
{"compound": "C[C@H](O)CC(=O)O [S-3-hydroxybutyric acid]", "endpoint name": "moisture content (%)", "result number": 9.53}
{"compound": "C[C@@H](O)CC(=O)O.C[C@@H](O)CC(=O)[O-].[K+]", "endpoint name": "moisture content (%)", "result number": 5.89}
{"compound": "CC(O)CC(=O)O (stereo not drawn) [3-hydroxybutyric acid]", "endpoint name": "moisture content (%)", "result number": 9.68}
{"compound": "C[C@@H](O)CC(=O)O [R-3-hydroxybutyric acid]", "endpoint name": "moisture content (%)", "result number": 9.52}
{"compound": "CC(O)CC(=O)[O-].[K+] (stereo not drawn) [Potassium 3-hydroxybutyrate, potassium 3-hydroxybutyrate]", "endpoint name": "moisture content (%)", "result number": 7.77}
{"compound": "CC(O)CC(=O)O.CC(O)CC(=O)[O-].CC(O)CC(=O)[O-].[Ca+2] (stereo not drawn)", "endpoint name": "moisture content (%)", "result number": 4.68}
{"compound": "CC(O)CC(=O)O.CC(O)CC(=O)[O-].[K+] (stereo not drawn)", "endpoint name": "moisture content (%)", "result number": 5.92}
{"compound": "CC[C@H](O)CC(=O)O.CC[C@H](O)CC(=O)[O-].[Na+]", "endpoint name": "moisture content (%)", "result number": 3.99}
{"compound": "CC[C@H](O)CC(=O)[O-].[Na+] [Sodium S-3-hydroxypentanoate, sodium S-3-hydroxypentanoate]", "endpoint name": "moisture content (%)", "result number": 6.22}
{"compound": "C[C@H](O)CC(=O)[O-].[K+] [Potassium S-3-hydroxybutyrate, potassium S-3-hydroxybutyrate]", "endpoint name": "moisture content (%)", "result number": 7.55}
{"compound": "CC[C@@H](O)CC(=O)O [R-3-hydroxypentanoic acid]", "endpoint name": "moisture content (%)", "result number": 7.93}
{"compound": "C[C@H](O)CC(=O)[O-].C[C@H](O)CC(=O)[O-].[Ca+2] [Calcium S-3-hydroxybutyrate, calcium S-3-hydroxybutyrate]", "endpoint name": "moisture content (%)", "result number": 5.24}
{"compound": "C[C@@H](O)CC(=O)O.C[C@@H](O)CC(=O)[O-].C[C@@H](O)CC(=O)[O-].[Mg+2]", "endpoint name": "moisture content (%)", "result number": 4.59}
{"compound": "CCC(O)CC(=O)O (stereo not drawn) [3-hydroxypentanoic acid]", "endpoint name": "moisture content (%)", "result number": 8.07}
{"compound": "CC[C@H](O)CC(=O)O [S-3-hydroxypentanoic acid]", "endpoint name": "moisture content (%)", "result number": 7.94}

The origin of these recorded values is patent US20260184662A1.
